System: FLT1
Assay context: concentration: 1 μM, replicates: in singlicate; n = 1;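 note: KINOMEscan kinase panel screen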
Documented %Inh across a set of compounds
Report only the number, with the unit % understood.

Below, 2 compounds whose answers are already recorded.
| Compound | System under test | %Inh (%) |
| --- | --- | --- |
| Cc1cccc(-c2nc(Nc3ccc4[nH]ncc4c3)c3ccccc3n2)n1 [GW857175] | FLT1 | 12 |
| O=c1cc(N2CCOCC2)nc2n(Cc3cccc(Cl)c3Cl)ccn12 [GSK2286295] | FLT1 | 26 |

Looking for the measured %Inh of CN1C(=O)C(Nc2ccc(Cl)c(C(=O)O)c2)=C(c2ccc(Cl)cc2)C1=O [SB-404290] , can you help?
0

Same read-out for CC1=C(C(=O)Nc2cc3cn[nH]c3cc2F)C(c2ccc(C(F)(F)F)cc2)CC(=O)N1 (centres unmarked) [GSK429286] ?
17

Next entry: Cc1c(Cn2ccn3c(=O)cc(N4CCOCC4)nc23)cccc1C(F)(F)F [GSK2289044]
0

====

Entries annotated with measured %Inh
Tested on: RSK1(Kin.Dom.2-C-terminal)
Construct: gene RPS6KA1
Assay context: concentration: 1 μM, replicates: in singlicate; n = 1
Numbers only; they are read as %.

Reference set, count: 2
| Molecule | U | %Inh |
| --- | --- | --- |
| COc1ccc(C2=C(Nc3cccc(C(=O)O)c3)C(=O)NC2=O)cc1 | % | 7 |
| Cl.O=C(Nc1cccc(-c2nn3ncccc3c2-c2ccnc(Nc3cccnc3)n2)c1)c1c(F)cccc1F | % | 10 |

API: value(readout=%Inh, system=RSK1(Kin.Dom.2-C-terminal)) for record CC(C)(C)c1ccc(C(=O)Nc2cn3cc(-c4cccnc4)ccc3n2)cc1
42

And for CS(=O)(=O)c1ccc(-c2c(-c3ncn[nH]3)sc(N3CCOCC3)c2C#N)cc1 ?
14

====

System: MLK3
Assay context: concentration: 1 μM, replicates: in singlicate; n = 1
Recorded metric: %Inh (%)
Form entry: value (%) — number only.

# count of solved cases: 3
| Molecule | Endpoint value |
| --- | --- |
| Cc1cccc(-c2nc(Nc3cccc(C(N)=O)c3)c3ccccc3n2)n1 [GW876019] | 0 |
| O=C(Nc1n[nH]c2cc(-c3cccc(F)c3F)ccc12)C1CC1 [SB-733894] | 4 |
| COc1ccccc1-c1ccc2c(NC(=O)C3CC3)n[nH]c2n1 [SB-711239] | 8 |

API: value(readout=%Inh, system=MLK3) for record Nc1ncnc2[nH]c(-c3ccccc3)nc12 [AH5015]
4

Same lookup for CCn1c(-c2cccnc2O)nc2cnccc21 [SB-736715] , please.
0

====

System: MAK
Assay context: concentration: 1 μM, replicates: in singlicate; n = 1
Labelling field: enter true (1) if recorded %Inh is less than 20%. Enter false (0) if it equals or exceeds that cut-off.

| Compound | Class assignment |
| --- | --- |
| COc1cc2ncn(-c3cc(OCC4CCCO4)c(C(N)=O)s3)c2cc1OC (centres unmarked) [GSK204607] | true (1) |
| COc1ccc2nc(-c3cccc(C)n3)nc(Nc3ccncc3)c2c1 [GSK204919] | false (0) |
| COc1ccc(Nc2nccc(-c3cccc(NC(=O)c4cc5cc(F)ccc5[nH]4)c3)n2)cc1 [GSK1229782] | false (0) |
| CCn1c(-c2cccnc2O)nc2cnccc21 [SB-736715] | true (1) |
| COc1cccc(NC(=O)NC2CCN(c3ccnc(Nc4ccc(F)cc4)n3)C2)c1 (centres unmarked) [GSK1379721] | false (0) |
| Fc1cc(Cl)ccc1Nc1ccnc2cc(I)ccc12 [GW551191] | false (0) |
| Cc1ccc(C(=O)Nc2ccc(Nc3ccnc4cc(-c5ccccn5)ccc34)cc2O)cc1.Cl [GW440146] | false (0) |
| COc1ccc(C2=C(Nc3cccc(C(=O)O)c3)C(=O)NC2=O)cc1 [SB-390765] | false (0) |
| Cc1cc(NCC(c2ccccc2)c2ccccc2)nc(NCc2ccc(C(F)(F)F)cc2)n1 [GW497681] | true (1) |
| Cc1ccccc1-n1cnc2c(N)ncnc21 [SKF-97510] | true (1) |

Dear reviewer, please state whether COc1ccc(Nc2nccc(NCCNC(=O)Nc3ccccc3F)n2)cc1 [GSK1379901] has %Inh strictly beneath 20%.
true (1)

Follow-up item: CC(C)(C)c1ccc(C(=O)Nc2cn3cc(Cl)ccc3n2)cc1
true (1)

Also Cn1ccc2ncnc(Oc3ccc(NC(=O)Nc4ccccc4)cc3)c21 , if possible.
true (1)
